Reference source: patent US20260152527A1

target-entity: human recombinant MC3R (CHO-K1/Gα15 stable cell line, GenScript) (human, UniProt P41968 1-323)
Sequence (P41968 whole entry): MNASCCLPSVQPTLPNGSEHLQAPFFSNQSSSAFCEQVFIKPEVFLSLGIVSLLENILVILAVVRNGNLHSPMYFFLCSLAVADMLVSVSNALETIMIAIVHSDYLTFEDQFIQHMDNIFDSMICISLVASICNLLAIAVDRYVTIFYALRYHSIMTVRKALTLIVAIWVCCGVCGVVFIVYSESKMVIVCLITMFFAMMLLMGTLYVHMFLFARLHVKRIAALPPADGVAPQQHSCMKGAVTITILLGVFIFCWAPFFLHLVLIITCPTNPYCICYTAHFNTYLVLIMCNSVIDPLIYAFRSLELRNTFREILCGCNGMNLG
protocol-text: cell-based or functional assay
Positions of bridges follow the written chain, without caps; N, C: chain ends. Non-standard residues stand in square brackets, D forms with d. Trp(1-Me) = Cn1cc(C[C@H](N)C(=O)O)c2ccccc21; Lys(N3) = [N-]=[N+]=NCCCC[C@H](N)C(=O)O; R8 = C=CCCCCCC[C@@](C)(N)C(=O)O; S5 = C=CCCC[C@](C)(N)C(=O)O; Nle = CCCC[C@H](N)C(=O)O; Pra = C#CC[C@H](N)C(=O)O
Recorded MC3R IC50 for the following binders
Report only the number, with the unit µM understood.

Would you please look over these solved cases?
binder: Ac-[R8]EHFRWG[S5]-NH2 (staple 1-8; SMILES CC(=O)N[C@]1(C)CCCCCCC=CCCC[C@@](C)(C(N)=O)NC(=O)CNC(=O)[C@H](Cc2c[nH]c3ccccc23)NC(=O)[C@H](CCCNC(=N)N)NC(=O)[C@H](Cc2ccccc2)NC(=O)[C@H](Cc2c[nH]cn2)NC(=O)[C@H](CCC(=O)O)NC1=O) [KR-015]
endpoint-value: 3

binder: Ac-[Nle][Lys(N3)]H[dF]R[Trp(1-Me)][Pra]K-NH2 (triazole 2-7; not fully specified; printed as Ac-Nle-[Lys(N3)-His-DPhe-Arg-Trp(Me)-Pra]-Lys-NH2) [KR-060]
endpoint-value: 0.26

binder: Ac-[Nle][S5]H[dF]RW[S5]-NH2 (staple 2-7) [KR-039]
endpoint-value: 0.426

Okay, now this binder:
Consider the binder Ac-[Lys(N3)]EHFRWG[Pra]-NH2 (triazole 1-8) [KR-010] and give its measured MC3R IC50.
13.6
